Biological target: Beta-2 adrenergic receptor (Homo sapiens)
Test: qHTS assay of beta-arrestin-biased ligands of beta2-adrenergic receptor: Hit Validation with GloSensor
Conditions: W9-Glo22F cells, GloSensor cAMP luminescence, beta2AR agonism
Hit rate of the full screen: of about 1,200 compounds, about 85 (7%) were called active. Calls follow the shape of the full dose curve. The list comes from a sample in which actives are over-represented; it also holds close analogues and randomly drawn compounds.
Output constraint: value belongs to t for active, f for inactive

Please review the following examples before continuing.
OCc1ccnc2c(O)cccc12 ... t
Cc1cccnc1NCc1ccc(O)c2ncccc12 ... f
NC(=S)N/N=C1\CCOc2ccc(F)cc21 ... f

Exercise: Recorded test call requested for `COc1ccc(-c2cc(C(F)(F)F)nc(SCC(=O)NCc3ccco3)n2)cc1OC`
Key: t

Exercise: Recorded test call requested for N#CC1=C(N)OC2=C(CC/C2=C\c2ccccc2)C1c1ccccc1 (centres undefined)
Key: f

Exercise: Recorded test call requested for NC(=S)N/N=C1\CC(c2ccc3c(c2)OCCCO3)Oc2ccc(F)cc21 (centres undefined)
Key: t

Exercise: Recorded test call requested for CC(c1ccccc1)n1c(-c2ccc(C(C)(C)C)cc2)n[nH]c1=S (centres undefined)
Key: f

Exercise: Recorded test call requested for `Cc1cc(N2Cc3ccccc3C2)ccc1C=O`
Key: f

Exercise: Recorded test call requested for O=C(O)CC1S/C(=N/N=C2CCCCC2)N(c2ccccc2)C1=O (centres undefined)
Key: f

Exercise: Recorded test call requested for `Cc1noc(C)c1COc1cccc(C(=O)Nc2ccccc2N2CCOCC2)c1`
Key: f

Exercise: Recorded test call requested for `Nc1c(Cl)ncnc1N/N=C/c1ccc2ccccc2n1`
Key: f

Exercise: Recorded test call requested for `CCOc1ccc(CC(=O)Nc2ccc(S(=O)(=O)Nc3cc(C)on3)cc2)cc1OCC`
Key: f

Exercise: Recorded test call requested for `COc1ccccc1NS(=O)(=O)c1ccc(NC(=O)Cc2cccs2)cc1`
Key: t

Exercise: Recorded test call requested for `S=c1nc2ccccc2c2nc(-c3ccccc3)[nH]n12`
Key: t
